Molecular target: Polyunsaturated fatty acid lipoxygenase ALOX12 (Homo sapiens)
Test: Primary qHTS assay for inhibitors of human arachidonate 12S-lipoxygenase (ALOX12): Round 2; also: potency is read from the fitted curve at half-maximal effect
Conditions: purified 12hLO, xylenol orange hydroperoxide absorbance; series mostly up to 108 µM
Source text: Assay Provider: Theodore R. Holman Ph.D. University of California, Santa Cruz, California Human lipoxygenase 12hLO is a member of the closely related lipoxygenase family of enzymes which catalyze the site-specific oxidation of arachidonic acid to various hormone precursor molecules and as such is a candidate for drug development in a variety of disease areas, such as cancer and inflammation. […] The Fe (III)-XO complex is characterized with red-shifted absorbance at 560 nm. […]
In all, about 580,000 compounds went through this assay and about 6,100 (1.1%) were called active. About 15% were inconclusive and are not listed. For the sample, actives were picked, then their nearest neighbours and some compounds at random.
readout: Potency

Known Potency results, listed for orientation:
Cc1ccc(Cn2c(N3CCC(C(N)=O)CC3)nc3c2c(=O)n(C)c(=O)n3C)cc1 inactive
CC(=O)c1c(N2CCOCC2)nc(=S)n(-c2cc(C)ccc2C)c1C inactive
Cc1nn(-c2ccc(C(C)C)cc2)c(C)c1[C@@H]1C=C[C@@H](NC(=O)Nc2ccccc2)C1 inactive
CC(=O)c1c(N2CCN(c3ccc(F)cc3)CC2)nc(=S)n(-c2ccccc2)c1C 44.7 µM (active)
CC(=O)c1c(N2CCOCC2)nc(=S)n(Cc2ccccc2)c1C inactive

// for each compound in input: emit Potency
1. O=C(NCc1ccc(Cl)cc1)c1cc(-c2ccc[nH]2)n[nH]1
2. COc1ccccc1CNC(=O)c1cc(-c2cc(Cl)ccc2C)n[nH]1
3. Cc1nn(-c2ccc(C(C)C)cc2)c(C)c1[C@@H]1C=C[C@@H](NC(=S)NCC(C)C)C1
4. Cc1oc(-c2ccccc2)nc1CC(=O)N(C)CC(=O)Nc1cccc2ccccc12
5. C=C(Br)CNCc1ccccc1

["31.6 µM (active)", "inactive", "56.2 µM (active)", "inactive", "inactive"]

* * *

molecular target: Polyunsaturated fatty acid lipoxygenase ALOX12 (Homo sapiens); assay: Primary qHTS assay for inhibitors of human arachidonate 12S-lipoxygenase (ALOX12): Round 2; conditions: purified 12hLO, xylenol orange hydroperoxide absorbance; series mostly up to 108 µM
The whole screen tested about 580,000 compounds, of which about 6,100 (1.1%) were called active. Another 15% or so got no clear call; they are omitted. Calls come from the whole dose curve; as a rule, active = well fitted inhibition curve with a large enough effect; inconclusive = small, poorly fitted or top-dose-only effect, or another doubt; inactive = no such curve, though single readings can be large or run the other way. The sample holds actives, similar compounds and a random draw of the others, so the mix is not that of the screen.
Permitted responses: Yes for active, No for inactive

# count of solved cases: 3
compound	target desc	answer label
CCC(=O)Nc1ccccc1-c1nc2ccccc2n(CC(=O)Nc2ccc(NC(C)=O)cc2)c1=O	Polyunsaturated fatty acid lipoxygenase ALOX12 (Homo sapiens)	No
CC(=O)Oc1ccc(N(C(C)=O)S(=O)(=O)c2ccc3ccccc3c2)cc1Br	Polyunsaturated fatty acid lipoxygenase ALOX12 (Homo sapiens)	No
COC(=O)C[C@H]1C=C[C@@H](NS(=O)(=O)c2ccc(C)cc2)[C@@H](CO)O1	Polyunsaturated fatty acid lipoxygenase ALOX12 (Homo sapiens)	No

// return assay outcome for `Cc1cc(C)c2oc(C(=O)Nc3ccc(S(=O)(=O)N4CCCCCC4)cc3)cc(=O)c2c1`
No

// return assay outcome for `CCOc1ccc(C(=O)N(CCN(C)C)CC(=O)OC(C)(C)C)cc1`
No

// return assay outcome for CCc1ccc(NC2Nc3cc(C)nn3S2)cc1 (configuration not stated)
Yes

// return assay outcome for `CCCc1nc(-c2ccccc2O)n(-c2ccccc2)n1`
No

// return assay outcome for `Cc1nc(N2CCN(CC(=O)N3CCCC3)CC2)c(C#N)c2c1COC(C)(C)C2`
No

// return assay outcome for Cc1ccccc1/C=C/C(=O)NC(C)CO (configuration not stated)
No

// return assay outcome for `CN(C)c1ccc(C=C2C(=O)OC3(CCCC3)OC2=O)cc1`
Yes

// return assay outcome for `Cc1ccccc1N1CCCN(Cc2ccccc2OCCO)CC1`
No

// return assay outcome for Cc1ccc(CS(=O)Cc2ccc(Cl)cc2)cc1 (configuration not stated)
No

// return assay outcome for `CCOC(=O)c1c(C)oc2ccc(N(C(=O)c3ccncc3)S(=O)(=O)c3ccc(CC)cc3)cc12`
No

// return assay outcome for `CCc1ccc(-c2nc(SCc3ncc(-c4ccccc4)o3)n[nH]2)cc1`
No

// return assay outcome for Oc1ccccc1C1=NN(c2ccccc2)C(c2ccccc2)C1 (configuration not stated)
Yes

// return assay outcome for `CC(=O)N(c1ccc2oc(=O)sc2c1)S(=O)(=O)c1ccc(C)cc1`
Yes

// return assay outcome for `CC(C)c1ccc(S(=O)(=O)N2CCN(C(=O)c3ccc(N4CCCC4)c([N+](=O)[O-])c3)CC2)cc1`
No

// return assay outcome for `COc1ccccc1NS(=O)(=O)c1ccc2oc(SCCOc3ccccc3F)nc2c1`
No

// return assay outcome for `CCN(CC)S(=O)(=O)c1ccc(-c2csc(-c3ccc(OC)c(OC)c3)n2)cc1`
No

* * *

target: Polyunsaturated fatty acid lipoxygenase ALOX12 (Homo sapiens); test: Primary qHTS assay for inhibitors of human arachidonate 12S-lipoxygenase (ALOX12): Round 2; conditions: purified 12hLO, xylenol orange hydroperoxide absorbance; series mostly up to 108 µM
In all, about 580,000 compounds went through this assay and about 6,100 (1.1%) were called active. Another 15% or so got no clear call; they are omitted. The call rests on the fitted dose curve; in most records, active means well fitted inhibition curve with a large enough effect; inconclusive means small, poorly fitted or top-dose-only effect, or another doubt; inactive means no such curve, though single readings can be large or run the other way. This excerpt belongs to a sample that is enriched for actives.
Permitted responses: active, inactive

# count of solved cases: 5
compound	target desc	answer label
O=C(O)C(c1ccccc1)N1C(=O)/C(=C\c2ccc(-c3cccc(Cl)c3)o2)SC1=S (stereo not given)	Polyunsaturated fatty acid lipoxygenase ALOX12 (Homo sapiens)	active
CC(C)Nc1nc(N(c2ccccc2)c2ccccc2)nc(-n2ccnc2)n1	Polyunsaturated fatty acid lipoxygenase ALOX12 (Homo sapiens)	inactive
O=C(NCCc1nc2ccccc2[nH]1)c1ccc(N2CCCN(Cc3cccc(F)c3)C2=O)cc1	Polyunsaturated fatty acid lipoxygenase ALOX12 (Homo sapiens)	inactive
N#CC(C#N)=Cc1ccc(-c2cccc(C(=O)O)c2)o1	Polyunsaturated fatty acid lipoxygenase ALOX12 (Homo sapiens)	inactive
O=C(CCc1c[nH]c2ccccc12)Nc1ccc(F)cc1	Polyunsaturated fatty acid lipoxygenase ALOX12 (Homo sapiens)	inactive

// return assay outcome for `CCn1nc(C(=O)N(C)Cc2cnn(-c3ccccc3)c2)c2ccccc2c1=O`
inactive

// return assay outcome for O=C(NC(Cc1ccccc1)C(=O)O)c1cccc(C(F)(F)F)c1 (stereo not given)
inactive

// return assay outcome for `CCOC(=O)c1c(C)[nH]c(C(=O)OC)c1C`
inactive

// return assay outcome for `O=C(Cc1ccc(Cl)cc1)Oc1ccc2ccccc2c1`
inactive

// return assay outcome for `C/C(=N\NC(=O)CNC(=O)C(c1ccccc1)c1ccccc1)c1ccc(C)cc1`
inactive

// return assay outcome for `CCOc1ccc(CNC(=O)c2cc(-c3ccc(Cl)s3)nc3ccccc23)cc1`
inactive

* * *

target: Polyunsaturated fatty acid lipoxygenase ALOX12 (Homo sapiens) (UniProt P18054); assay: Primary qHTS assay for inhibitors of human arachidonate 12S-lipoxygenase (ALOX12): Round 2; settings: purified 12hLO, xylenol orange hydroperoxide absorbance; series mostly up to 108 µM
Sequence (P18054 whole entry, looked up): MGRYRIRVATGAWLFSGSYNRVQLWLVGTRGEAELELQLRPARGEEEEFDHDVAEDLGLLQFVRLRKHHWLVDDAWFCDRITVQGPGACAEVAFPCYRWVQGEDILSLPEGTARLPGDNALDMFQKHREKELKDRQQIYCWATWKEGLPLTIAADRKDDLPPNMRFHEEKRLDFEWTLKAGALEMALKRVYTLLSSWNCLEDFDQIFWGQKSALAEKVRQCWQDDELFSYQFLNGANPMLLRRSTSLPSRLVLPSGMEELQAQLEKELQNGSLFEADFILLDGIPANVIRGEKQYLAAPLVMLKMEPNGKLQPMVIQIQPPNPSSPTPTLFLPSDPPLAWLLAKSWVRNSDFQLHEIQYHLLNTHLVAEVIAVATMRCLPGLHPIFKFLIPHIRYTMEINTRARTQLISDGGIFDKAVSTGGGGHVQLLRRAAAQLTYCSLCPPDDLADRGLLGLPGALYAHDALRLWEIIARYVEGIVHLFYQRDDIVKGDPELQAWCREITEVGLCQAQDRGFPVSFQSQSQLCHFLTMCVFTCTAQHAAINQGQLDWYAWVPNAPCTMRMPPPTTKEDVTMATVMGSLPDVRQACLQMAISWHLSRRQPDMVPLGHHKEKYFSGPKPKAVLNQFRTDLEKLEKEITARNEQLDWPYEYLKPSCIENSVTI
The campaign covered roughly 580,000 compounds. About 6,100 (1.1%) were called active. Another 15% or so got no clear call; they are omitted. Calls come from the whole dose curve; as a rule, active = well fitted inhibition curve with a large enough effect; inconclusive = small, poorly fitted or top-dose-only effect, or another doubt; inactive = no such curve, though single readings can be large or run the other way. For the sample, actives were picked, then their nearest neighbours and some compounds at random.
Permitted responses: active, inactive

# count of solved cases: 5
compound	answer label
CC(C)N1C(=O)C2(CCCC2)C1C(=O)Nc1ccc2c(c1)N(C)CCC2 (stereo unspecified)	inactive
Cc1ccccc1CN(C)C(C)c1nc(-c2cccs2)no1 (stereo unspecified)	inactive
CCOC(=O)C[C@H]1c2ccc(C(F)(F)F)cc2S(=O)(=O)N1c1ccccc1	inactive
CCOC(=O)C1Nc2ccc(C(F)(F)F)cc2C2C=CCC12 (stereo unspecified)	active
NS(=O)(=O)c1ccc(CCNc2ncnc3c2cnn3-c2ccccc2Cl)cc1	inactive

// return assay outcome for `Cn1c(-c2sccc2OCc2cccc(C(F)(F)F)c2)n[nH]c1=S`
active

// return assay outcome for `CCN(CC)CCCCNc1ncc2c(n1)N(C)C(=O)N(c1c(Cl)c(OC)cc(OC)c1Cl)C2`
active

// return assay outcome for `FC(F)(F)c1ccc(-n2cn[nH]c2=S)cc1`
inactive

// return assay outcome for `CN(C)c1ccc(NC(=O)Cn2cnc3c2c(=O)n(C)c(=O)n3C)cc1`
inactive

// return assay outcome for `CCNC(=O)CN1CCCN(C(=O)CCCc2c[nH]c3ccccc23)CC1`
inactive

// return assay outcome for `COc1ccc(Cl)cc1NC(=O)CCc1ncc(-c2ccc(C)cc2)o1`
inactive

* * *

target: Polyunsaturated fatty acid lipoxygenase ALOX12 (Homo sapiens); assay: Primary qHTS assay for inhibitors of human arachidonate 12S-lipoxygenase (ALOX12): Round 2; details: purified 12hLO, xylenol orange hydroperoxide absorbance; series mostly up to 108 µM
In all, about 580,000 compounds went through this assay and about 6,100 (1.1%) were called active. Roughly 15% stayed inconclusive and do not appear here. Calls follow the shape of the dose curve; as a rule, active = well fitted inhibition curve with a large enough effect; inconclusive = small, poorly fitted or top-dose-only effect, or another doubt; inactive = no such curve, though single readings can be large or run the other way. The entries come from a sample that favours actives as a whole.
Permitted responses: YES = active, NO = inactive

# count of solved cases: 3
compound	answer label
N#Cc1c(-c2cccs2)nc(SCC(=O)c2ccc(Br)cc2)[nH]c1=O	YES
O=C(Nc1ccc2c(c1)OCO2)c1cc(=O)c(OCc2ccccc2F)co1	NO
CCCCCCCCCC(=O)NN=C1CCCCCCCCCCC1	NO

// return assay outcome for `N#Cc1cccc(-c2ccc3ncnc(NCc4cccs4)c3c2)c1`
YES
